Data provenance: ChEMBL document CHEMBL1123067

assay.notes: Brain to blood ratio in Sprague-Dawley rats after 30 min injection by intravenously
Type: ADME, organism-based
test.context: rat, brain and blood, iv
observation.type: Kp at 0.5 h

A. CN1C=CCC(C(=O)NCCc2ccc([125I])cc2)=C1
B. CN1C=CCC(C(=O)Nc2ccc([125I])cc2)=C1
// query Determine, for A and B , which has the greater value of Kp at 0.5 h. Lab note: record the label of whichever item you select.
// result B
(B: 2.66, A: 0.23)

====

assay.notes: Brain to blood ratio in Sprague-Dawley rats after 60 min injection by intravenously
Type: ADME, organism-based
test.context: rat, brain and blood, iv
observation.type: Kp at 1 h

I. CN1C=CCC(C(=O)Nc2ccc([125I])cc2)=C1
II. CN1C=CCC(C(=O)NCCc2ccc([125I])cc2)=C1
// query # return whichever of I and II has the smaller Kp at 1 h Lab note: record the label of whichever item you select.
// result II
(II: 0.29, I: 3.6)

====

assay.notes: Brain to blood ratio in Sprague-Dawley rats after 15 min injection by intravenously
Format: ADME, organism-based
test.context: rat, brain and blood, iv
observation.type: Kp at 0.25 h

a. CN1C=CCC(C(=O)Nc2ccc([125I])cc2)=C1
b. CN1C=CCC(C(=O)NCCc2ccc([125I])cc2)=C1
// query # return whichever of a and b has the smaller Kp at 0.25 h Lab note: record the label of whichever item you select.
// result b
